# assay: Stability of compound in TRIS buffer at pH 8 assessed as compound conversion in presence of DTT measured after 15 mins by LC-MS analysis
# Type: physicochemical
# measurementParameters: TRIS buffer with DTT, read-out: Drug metabolism
measurementKind: degraded at 0.25 h (%)

- molSmiles: "Nc1ncnc2c1ncn2[C@@H]1O[C@H](CN(CC[C@H](N)C(=O)O)S(=O)(=O)c2ccc(Br)c([N+](=O)[O-])c2)[C@@H](O)[C@H]1O"
  uom: "%"
  degraded at 0.25 h: 60
- molSmiles: "Nc1ncnc2c1ncn2[C@@H]1O[C@H](CN(CC[C@H](N)C(=O)O)S(=O)(=O)c2ccc(Cl)c([N+](=O)[O-])c2)[C@@H](O)[C@H]1O"
  uom: "%"
  degraded at 0.25 h: 60

// data source = ChEMBL document CHEMBL5247681
